# System: MDA-MB-468 breast
# Assay Name: NCI tumour cell line growth inhibition, 48 h
I'd appreciate it if you could supply TGI values for the items below.
Answers are plain numbers, in µM.

[
  {
    "Compound": "Cc1nc(/N=C(\\N)NC(=O)Nc2ccccc2Cl)sc1C",
    "TGI / µM": 4.67
  },
  {
    "Compound": "Cc1cc(-c2nc(-c3ccc(OC(F)(F)F)cc3)no2)nn1Cc1ccnc(N2CCN(C3CC3)CC2)c1",
    "TGI / µM": 5.68
  },
  {
    "Compound": "CN(C)CCCNc1nccc(-c2c(-c3ccc(F)cc3)nn3cc(C(F)(F)F)ccc23)n1",
    "TGI / µM": 7.35
  },
  {
    "Compound": "COc1cccc(C2C3=C(COC3=O)N(CCO)c3cc4c(cc32)OCCO4)c1 (stereo not drawn)",
    "TGI / µM": 1.27
  },
  {
    "Compound": "N#Cc1c(-c2ccccc2)cc(-c2ccccc2)n(CCCCC(=O)NO)c1=O",
    "TGI / µM": 11.8
  }
]

Next item in the queue.
Request: What value of TGI has been reported for the following compound? CC1=C([Se]CC(OC(=O)[C@@H](CO)NC(=O)OC(C)(C)C)C(=O)NC(C)(C)C)C(=O)c2ccccc2C1=O (stereo partly drawn)
Response: 2.29

---

# Test system: MDA-MB-468 breast
# Assay Name: NCI tumour cell line growth inhibition, 48 h; in the data active = GI50 below about 0.43 µM; inactive = the rest
Please state which outcome applies, choosing from active, inactive

[
  {
    "Compound String": "C#C[C@]1(O)CC[C@H]2[C@@H]3CC=C4c5sc(Nc6cc(C)cc(C)n6)nc5CC[C@]4(C)[C@H]3CC[C@@]21C",
    "Class": "inactive"
  },
  {
    "Compound String": "COC(=O)[C@@]1(C)CC[C@]2(C)CC[C@]3(C)C4=CC=C5C(=CC(=O)C(O)=C5C)[C@]4(C)CC[C@@]3(C)[C@@H]2C1",
    "Class": "active"
  },
  {
    "Compound String": "O=C1/C(=C/c2ccccc2)CCC/C1=C\\c1ccccc1",
    "Class": "inactive"
  },
  {
    "Compound String": "CN(C)CCCNc1nccc(-c2c(-c3ccc(F)cc3)nn3cc(C(F)(F)F)ccc23)n1",
    "Class": "inactive"
  },
  {
    "Compound String": "Cc1nc(/N=C(\\N)NC(=O)Nc2ccccc2Cl)sc1C",
    "Class": "inactive"
  }
]

Request: Please indicate how the test categorized Clc1ccc(-c2nn3ncccc3c2-c2ccnc(Nc3ccccc3)n2)cc1 .
Response: inactive

---

# System: MDA-MB-468 breast
# Assay Name: NCI tumour cell line growth inhibition, 48 h; in the data active = GI50 below about 0.43 µM; inactive = the rest
Please state which outcome applies, choosing from active, inactive

These recorded examples may help you get a feel for the data.
[
  {
    "Compound String": "N#CN1CCC[C@H]1C(=O)N1CCc2c(-c3[nH]nc4ncccc34)cccc21",
    "Class": "active"
  },
  {
    "Compound String": "COc1cc([C@@H]2c3cc4c(cc3[C@H](O)[C@H]3COC(=O)[C@H]23)OCO4)cc(OC)c1OC",
    "Class": "active"
  },
  {
    "Compound String": "c1ccc(-c2nn(-c3ccccc3)[n+](-c3cccc4ccccc34)n2)cc1",
    "Class": "active"
  },
  {
    "Compound String": "CN1C(=O)/C(=C/c2ccc3ncsc3c2)NC1=NC12CC3CC(CC(O)(C3)C1)C2",
    "Class": "inactive"
  },
  {
    "Compound String": "CCCCN(CCCC)CCCN=c1nc2c(c(N)n1-c1ccccc1)c(=S)n(-c1ccccc1)c(=S)n2-c1ccccc1",
    "Class": "active"
  }
]

Request: Please indicate how the test categorized O=C1/C(=C\c2coc3ccccc3c2=O)c2ccccc2N1c1c(Cl)cccc1Cl .
Response: inactive

Request: Please indicate how the test categorized Cc1ccc(Cl)cc1NC(=O)Nc1nc2ccc([N+](=O)[O-])cc2s1 .
Response: inactive

Request: Please indicate how the test categorized CC1=C(/C=C/C(C)=C/C=C/C(C)=C/C(=O)Nc2ccc(O)cc2)C(C)(C)CCC1 .
Response: inactive

Request: Please indicate how the test categorized COc1ccccc1-n1cc(C#N)c(N)c1C(=O)c1ccc(Cl)cc1Cl .
Response: inactive

Request: Please indicate how the test categorized CCOc1ccc(/C=C/[N+](=O)[O-])cc1 .
Response: inactive

Data provenance: PubChem BioAssay (NCI)
